Where these numbers come from: paper PMC6361391

Catalogue of MIC, Staphylococcus aureus ATCC 29213 values
# System: Staphylococcus aureus ATCC 29213
# Format: cell-based
Where a SMILES comes first, the peptide text is derived from it. Bridges are numbered along the chain shown (N, C = ends). [ ]: non-standard residue; d: D form. d(aIle) = CC[C@H](C)[C@@H](N)C(=O)O; dNMeF = CN[C@H](Cc1ccccc1)C(=O)O

Field: example entries. Status: answers known.
INSERT INTO measurements (compound, observed_measurement) VALUES
  ('CC[C@H](C)[C@H](NC(=O)[C@@H](Cc1ccccc1)NC)C(=O)N[C@@H](C)C(=O)N[C@H](CCC(N)=O)C(=O)N[C@@H](C(=O)N[C@H](C(=O)N[C@@H](CO)C(=O)N[C@H]1C(=O)N[C@@H](C)C(=O)N[C@@H](CCCCN)C(=O)N[C@@H]([C@@H](C)CC)C(=O)O[C@H]1C)[C@@H](C)CC)[C@@H](C)CC [Ala3,Lys10-teixobactin] (H-[dNMeF]IA[dQ][d(aIle)]IS[dT]AKI; ester 8-C)', '0.5 µg/mL'),
  ('CC[C@H](C)[C@H](NC(=O)[C@@H](Cc1ccccc1)NC)C(=O)N[C@@H](CO)C(=O)N[C@H](CCC(N)=O)C(=O)N[C@@H](C(=O)N[C@H](C(=O)N[C@@H](CO)C(=O)N[C@H]1C(=O)N[C@@H](C)C(=O)N[C@@H](C)C(=O)N[C@@H]([C@@H](C)CC)C(=O)O[C@H]1C)[C@@H](C)CC)[C@@H](C)CC [Ala10-teixobactin]', '1 µg/mL'),
  ('CC[C@H](C)[C@H](NC(=O)[C@@H](Cc1ccccc1)NC)C(=O)N[C@@H](CO)C(=O)N[C@H](CCC(N)=O)C(=O)N[C@@H](C(=O)N[C@@H](C)C(=O)N[C@@H](CO)C(=O)N[C@H]1C(=O)N[C@@H](C)C(=O)N[C@@H](CCCCN)C(=O)N[C@@H]([C@@H](C)CC)C(=O)O[C@H]1C)[C@@H](C)CC [Ala6,Lys10-teixobactin] (H-[dNMeF]IS[dQ][d(aIle)]AS[dT]AKI; ester 8-C)', '>32 µg/mL'),
  ('CC[C@H](C)[C@H](NC(=O)[C@H](NC(=O)[C@@H](CCC(N)=O)NC(=O)[C@H](CO)NC(=O)[C@H](C)NC(=O)[C@@H](Cc1ccccc1)NC)[C@@H](C)CC)C(=O)N[C@@H](CO)C(=O)N[C@H]1C(=O)N[C@@H](C)C(=O)N[C@@H](CCCCN)C(=O)N[C@@H]([C@@H](C)CC)C(=O)O[C@H]1C [Ala2,Lys10-teixobactin] (H-[dNMeF]AS[dQ][d(aIle)]IS[dT]AKI; ester 8-C)', '>32 µg/mL');

Next compound, please.
Please report the recorded MIC, Staphylococcus aureus ATCC 29213 for CC[C@H](C)[C@H](NC(=O)[C@@H](Cc1ccccc1)NC)C(=O)N[C@@H](CO)C(=O)N[C@H](CCC(N)=O)C(=O)N[C@@H](C(=O)N[C@H](C(=O)N[C@@H](C)C(=O)N[C@H]1C(=O)N[C@@H](C)C(=O)N[C@@H](CCCCN)C(=O)N[C@@H]([C@@H](C)CC)C(=O)O[C@H]1C)[C@@H](C)CC)[C@@H](C)CC [Ala7,Lys10-teixobactin] (H-[dNMeF]IS[dQ][d(aIle)]IA[dT]AKI; ester 8-C) . >32 µg/mL
